The values you see were collected from patent US8987301B2.

pIC50: −log10 of the molar value.
These molecules were tested on TβR (GST-ALK5) (Homo sapiens); pIC50 is the recorded read-out.

Value (pIC50, TβR (GST-ALK5) (Homo sapiens)) for record c1ccc(-c2cc(Nc3ccncc3)c3ccccc3n2)cc1 [compound 073] = > 6.30

Value (pIC50, TβR (GST-ALK5) (Homo sapiens)) for record Nc1cnncc1Nc1cc(-c2cc(Cl)ccc2F)nc2ccccc12 [compound 092] = 5.00 to 6.00

Value (pIC50, TβR (GST-ALK5) (Homo sapiens)) for record O=c1[nH]c2cnccc2n1-c1c(O)c(-c2cc(Cl)ccc2F)nc2ccccc12 [compound 053] = 5.00 to 6.00

* * *

Entries and their IC50
Assay System: UniProt:P36897
Sequence (P36897 34-503): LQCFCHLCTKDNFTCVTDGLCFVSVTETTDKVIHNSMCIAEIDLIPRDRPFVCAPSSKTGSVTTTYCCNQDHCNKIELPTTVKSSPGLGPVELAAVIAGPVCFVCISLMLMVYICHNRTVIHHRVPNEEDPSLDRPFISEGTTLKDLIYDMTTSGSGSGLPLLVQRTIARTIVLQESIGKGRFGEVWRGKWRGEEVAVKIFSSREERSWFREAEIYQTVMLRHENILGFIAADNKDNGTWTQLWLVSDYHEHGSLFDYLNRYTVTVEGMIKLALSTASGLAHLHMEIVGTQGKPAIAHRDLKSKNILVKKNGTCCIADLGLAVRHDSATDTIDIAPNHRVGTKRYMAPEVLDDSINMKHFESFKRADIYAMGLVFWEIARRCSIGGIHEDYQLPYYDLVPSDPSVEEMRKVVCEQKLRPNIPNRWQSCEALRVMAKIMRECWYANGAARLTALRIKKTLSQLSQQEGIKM

For this compound ( CN1CCN(C(=O)Nc2cnccc2Nc2cc(-c3cc(Cl)ccc3F)nc3ccccc23)CC1 ), measured IC50 is 500 to 1000 nM

Further cases:
For this compound ( Fc1ccc(F)c(-c2cc(Nc3ccncc3)c3ccccc3n2)c1 ), measured IC50 is < 500 nM

For this compound ( CN(C)CCCc1nc2cnccc2n1-c1cc(-c2cc(Cl)ccc2F)nc2ccccc12 ), measured IC50 is 1000 to 10000 nM

For this compound ( CN1CCN(C(=O)c2cnccc2Nc2cc(-c3cc(Cl)ccc3F)nc3ccccc23)CC1 ), measured IC50 is 1000 to 10000 nM

For this compound ( Fc1ccccc1-c1cc(Nc2ccncc2C(F)(F)F)c2ccccc2n1 ), measured IC50 is < 500 nM

For this compound ( CN(C)c1cccc(-c2cc(Nc3ccncc3)c3ccccc3n2)c1 ), measured IC50 is 1000 to 10000 nM

* * *

Assay System: TβR (GST-ALK5) (Homo sapiens)
Entries and their IC50

Answered examples (7):
For this compound ( O=S(=O)(CC(F)(F)F)Nc1cnccc1Nc1cc(-c2cc(Cl)ccc2F)nc2ccccc12 [compound 030] ), measured IC50 is 1000 to 10000 nM

For this compound ( Fc1ccc(Cl)cc1-c1cc(Nc2ccnc3cc(C(F)(F)F)ccc23)c2ccccc2n1 [compound 069] ), measured IC50 is < 500 nM

For this compound ( Nc1cnccc1Nc1cc(-c2cc(Cl)ccc2F)nc2ccccc12 [compound 019] ), measured IC50 is < 500 nM

For this compound ( CC(=O)OC(C)(C)C(=O)Nc1cnccc1Nc1cc(-c2cc(Cl)ccc2F)nc2ccccc12 [compound 088] ), measured IC50 is 1000 to 10000 nM

For this compound ( Fc1ccc(Cl)cc1-c1cc(Nc2ccnc(N(c3ccnc(Cl)c3)c3cc(-c4cc(Cl)ccc4F)nc4ccccc34)c2)c2ccccc2n1 [compound 022] ), measured IC50 is 1000 to 10000 nM

For this compound ( Fc1ccc(Cl)cc1-c1cc(Nc2cc(Nc3cc(-c4cc(Cl)ccc4F)nc4ccccc34)ncn2)c2ccccc2n1 [compound 036] ), measured IC50 is > 10000 nM

For this compound ( Fc1ccc(Cl)cc1-c1cc(Nc2ccccn2)c2ccccc2n1 [compound 005] ), measured IC50 is > 10000 nM

Further cases:
For this compound ( CN1CCC(NC(=O)c2cnccc2Nc2cc(-c3cc(Cl)ccc3F)nc3ccccc23)CC1 [compound 125] ), measured IC50 is < 500 nM

* * *

Entries and their IC50
Assay System: TβR (GST-ALK5) (Homo sapiens, UniProt P36897)
Sequence (P36897 34-503): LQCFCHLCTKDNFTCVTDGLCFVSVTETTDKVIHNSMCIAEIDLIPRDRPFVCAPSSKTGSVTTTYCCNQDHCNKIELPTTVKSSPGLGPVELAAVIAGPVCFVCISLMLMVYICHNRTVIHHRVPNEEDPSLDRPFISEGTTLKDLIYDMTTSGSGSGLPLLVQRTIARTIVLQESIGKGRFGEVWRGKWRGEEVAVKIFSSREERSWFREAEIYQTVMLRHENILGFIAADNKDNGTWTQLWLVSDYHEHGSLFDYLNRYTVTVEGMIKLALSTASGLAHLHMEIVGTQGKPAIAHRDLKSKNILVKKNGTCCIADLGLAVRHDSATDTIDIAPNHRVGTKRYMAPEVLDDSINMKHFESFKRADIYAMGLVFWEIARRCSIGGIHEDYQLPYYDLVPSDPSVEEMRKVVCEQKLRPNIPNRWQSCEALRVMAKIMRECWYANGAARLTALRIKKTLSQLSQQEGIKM

Answered examples (4):
For this molecule ( CN(c1ccncc1)c1cc(-c2cc(Cl)ccc2F)nc2ccccc12 [compound 007] ), measured IC50 is 500 to 1000 nM

For this molecule ( Fc1ccc(Cl)cc1-c1cc(Oc2cccnc2)c2ccccc2n1 [compound 063] ), measured IC50 is > 10000 nM

For this molecule ( CC(C)(C)S(=O)(=O)c1cnccc1Nc1cc(-c2cc(Cl)ccc2F)nc2ccccc12 [compound 096] ), measured IC50 is > 10000 nM

For this molecule ( CC(=O)Nc1cc(Nc2cc(-c3cc(Cl)ccc3F)nc3ccccc23)ccn1 [compound 107] ), measured IC50 is < 500 nM

Further cases:
For this molecule ( CN(C)C(=O)Nc1cnccc1Nc1cc(-c2cc(Cl)ccc2F)nc2ccccc12 [compound 031] ), measured IC50 is < 500 nM

For this molecule ( OCc1cnccc1Nc1cc(-c2ccccc2F)nc2ccccc12 [compound 127] ), measured IC50 is < 500 nM

For this molecule ( Fc1ccc(Cl)cc1-c1cc(Nc2ccncc2)c2cc3c(cc2n1)OCO3 [compound 095] ), measured IC50 is > 10000 nM

For this molecule ( COc1cnccc1Nc1cc(-c2cc(Cl)ccc2F)nc2ccccc12 [compound 090] ), measured IC50 is < 500 nM

For this molecule ( Fc1ccc(Cl)cc1-c1cc(Nc2ccnnc2)c2ccccc2n1 [compound 020] ), measured IC50 is < 500 nM

For this molecule ( Nc1ccncc1Nc1cc(-c2cc(Cl)ccc2F)nc2ccccc12 [compound 029] ), measured IC50 is > 10000 nM

For this molecule ( Clc1ccc(Cl)c(-c2cc(Nc3ccncc3)c3ccccc3n2)c1 [compound 048] ), measured IC50 is < 500 nM

For this molecule ( Nc1ncnc(Nc2cc(-c3cc(C(F)(F)F)ccc3F)nc3ccccc23)n1 [compound 118] ), measured IC50 is < 500 nM

For this molecule ( O=[N+]([O-])c1cnccc1Nc1cc(-c2cc(Cl)ccc2F)nc2ccccc12 [compound 018] ), measured IC50 is 1000 to 10000 nM

* * *

Assay System: TβR (GST-ALK5) (Homo sapiens, UniProt P36897)
Entries and their IC50

Answered examples (4):
Value (IC50, TβR (GST-ALK5) (Homo sapiens, UniProt P36897)) for record CN(C)CC(=O)Nc1cnccc1Nc1cc(-c2cc(Cl)ccc2F)nc2ccccc12 [compound 054] = < 500 nM

Value (IC50, TβR (GST-ALK5) (Homo sapiens, UniProt P36897)) for record CCC(=O)Nc1cc(Nc2cc(-c3cc(Cl)ccc3F)nc3ccccc23)ccn1 [compound 113] = < 500 nM

Value (IC50, TβR (GST-ALK5) (Homo sapiens, UniProt P36897)) for record Fc1ccccc1-c1cc(Nc2ccncn2)c2ccccc2n1 [compound 045] = < 500 nM

Value (IC50, TβR (GST-ALK5) (Homo sapiens, UniProt P36897)) for record CN1CCN(c2nccc(Nc3cc(-c4cc(Cl)ccc4F)nc4ccccc34)n2)CC1 [compound 015] = > 10000 nM

We next turn to a different molecule, shown below.
Value (IC50, TβR (GST-ALK5) (Homo sapiens, UniProt P36897)) for record CNC(=O)c1cnccc1Nc1cc(-c2cc(Cl)ccc2F)nc2ccccc12 [compound 119] = < 500 nM

* * *

Entries and their pIC50
Target chain: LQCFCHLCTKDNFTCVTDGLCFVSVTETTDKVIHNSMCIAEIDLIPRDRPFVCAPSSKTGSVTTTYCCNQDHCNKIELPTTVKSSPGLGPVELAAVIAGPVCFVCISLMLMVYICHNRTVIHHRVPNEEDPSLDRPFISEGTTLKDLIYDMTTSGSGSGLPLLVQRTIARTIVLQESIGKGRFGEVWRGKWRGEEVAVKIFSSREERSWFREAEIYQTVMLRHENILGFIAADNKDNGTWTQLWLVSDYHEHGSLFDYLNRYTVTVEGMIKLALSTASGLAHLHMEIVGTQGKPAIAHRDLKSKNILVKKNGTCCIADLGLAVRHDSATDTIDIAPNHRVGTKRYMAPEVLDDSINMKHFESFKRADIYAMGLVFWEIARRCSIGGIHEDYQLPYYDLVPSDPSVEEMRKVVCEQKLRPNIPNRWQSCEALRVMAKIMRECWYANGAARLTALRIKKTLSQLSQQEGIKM
pIC50: −log10 of the molar value.

For this compound ( O=S1(=O)Nc2cnccc2N1c1cc(-c2cc(Cl)ccc2F)nc2ccccc12 ), measured pIC50 is > 6.30

For this compound ( Nc1cnccc1N(CCC(=O)O)c1cc(-c2cc(Cl)ccc2F)nc2ccccc12 ), measured pIC50 is < 5.00

For this compound ( O=S(=O)(O)Nc1cnccc1Nc1cc(-c2cc(Cl)ccc2F)nc2ccccc12 ), measured pIC50 is 5.00 to 6.00

For this compound ( Nc1nc(N)nc(Nc2cc(-c3cc(Cl)ccc3F)nc3ccccc23)n1 ), measured pIC50 is 5.00 to 6.00

For this compound ( Fc1ccc(Cl)cc1-c1cc(Nc2cn[nH]c2)c2ccccc2n1 ), measured pIC50 is > 6.30

For this compound ( O=C(Nc1cc(-c2cc(Cl)ccc2F)nc2ccccc12)c1cccnc1 ), measured pIC50 is 5.00 to 6.00

For this compound ( O=C(Nc1cnccc1Nc1cc(-c2cc(Cl)ccc2F)nc2ccccc12)C(F)(F)F ), measured pIC50 is 5.00 to 6.00

For this compound ( Fc1ccc(Cl)cc1-c1cc(-n2ccc3cnccc32)c2ccccc2n1 ), measured pIC50 is > 6.30

For this compound ( COc1cccc(-c2cc(Nc3ccncc3)c3ccccc3n2)c1 ), measured pIC50 is 6.00 to 6.30

For this compound ( FC(F)(F)c1cccc(-c2cc(Nc3ccncc3)c3ccccc3n2)c1 ), measured pIC50 is > 6.30

For this compound ( FC(F)(F)c1ccccc1-c1cc(Nc2ccncc2)c2ccccc2n1 ), measured pIC50 is < 5.00

For this compound ( COc1ccc2c(Nc3cc(-c4cc(Cl)ccc4F)nc4ccccc34)ccnc2c1 ), measured pIC50 is > 6.30

For this compound ( CCOc1cc(Nc2cc(-c3cc(Cl)ccc3F)nc3ccccc23)ccn1 ), measured pIC50 is < 5.00
